These data points were gathered from the NIST ThermoML archive (doi:10.1021/je201334p).

CONDITION DESCRIPTION: 288.15 K; 101 kPa; Liquid; Vibrating tube method
READOUT LABEL: mass density (kg/m3)

>>> df
                                   compound  endpoint_value
0  CCCCn1cc[n+](C)c1.N#CN=C=[N-] [1-butyl-3-methylimidazolium dicyanamide]         1066.58
1  CCCCn1cc[n+](C)c1.O=S(=O)([O-])C(F)(F)F [1-butyl-3-methylimidazolium trifluoromethanesulfonate]          1307.5
2  COS(=O)(=O)[O-].C[n+]1ccccc1 [1-methylpyridinium methylsulfate]         1352.86
3  CCCC[N+]1(C)CCCC1.O=S(=O)([O-])C(F)(F)F [1-butyl-1-methylpyrrolidinium trifluoromethanesulfonate]         1260.33
4  CCCC[n+]1cccc(C)c1.O=S(=O)([O-])C(F)(F)F [1-butyl-3-methylpyridinium trifluoromethanesulfonate]         1287.07
5  CCOS(=O)(=O)[O-].CCc1cccc[n+]1CC [1,2-diethylpyridinium ethylsulfate]         1225.93
6  CCCCCCn1cc[n+](C)c1.N#CN=C=[N-] [1-hexyl-3-methylimidazolium dicyanamide]         1034.76
7  CCCC[N+]1(C)CCCC1.N#CN=C=[N-] [1-butyl-1-methylpyrrolidinium dicyanamide]         1019.17
